- Test system: SK-MEL-28
- Procedure summary: Cytotoxicity against human SK-MEL-28 cells assessed as inhibition of cell growth incubated for 72 hrs by MTT assay
- Assay type: functional, cell-based
- Reported conditions: SK-MEL-28, 72 h
Quantity name: IC50 (nM)
Give the value, in units of nM, as a plain number.

chemical_smiles=COC(=O)[C@]12CCC(C)(C)C[C@H]1C1=CC[C@@H]3[C@@]4(C)C(C=O)=C[C@@](C)(CO)[C@@H]4CC[C@@]3(C)[C@]1(C)CC2 quantity_name=IC50 assay_result=850
chemical_smiles=C=CCOC(=O)[C@]12CCC(C)(C)C[C@H]1C1=CC[C@@H]3[C@@]4(C)C(C=O)=C[C@@](C)(CO)[C@@H]4CC[C@@]3(C)[C@]1(C)CC2 quantity_name=IC50 assay_result=530
chemical_smiles=CCOC(=O)[C@]12CCC(C)(C)C[C@H]1C1=CC[C@@H]3[C@@]4(C)C(C=O)=C[C@@](C)(CO)[C@@H]4CC[C@@]3(C)[C@]1(C)CC2 quantity_name=IC50 assay_result=580

Now for another entry.
Exercise: Please provide the recorded IC50 for "CCCCOC(=O)[C@]12CCC(C)(C)C[C@H]1C1=CC[C@@H]3[C@@]4(C)C(C=O)=C[C@@](C)(CO)[C@@H]4CC[C@@]3(C)[C@]1(C)CC2" , tested on SK-MEL-28.
Solution: 450
